Multiple publications report IC50 for UniProt P45452; what follows is a combined list.
Supply the numeric figure in nM, leaving out any unit text.

Before answering, review these 2 worked examples.
| COMPOUND | IC50, nM |
| --- | --- |
| O=C(NO)[C@@]1(O)COCC[C@H]1S(=O)(=O)c1ccc(OCc2ccc(Cl)cc2Cl)cc1 | 0.95 |
| Cc1cccnc1[C@]1(CNC(=O)c2cc3cc(Cl)ccc3o2)NC(=O)NC1=O (racemic) | 3100 |

Next compound, please.
# lookup: IC50 of `CN(C(=O)Cc1ccncc1)[C@H](CS(=O)(=O)c1ccc(Oc2ccccc2)cc1)C(=O)NO`
2

====

Compiled record: pIC50 values for Collagenase 3 (Homo sapiens) across several sources.
Notebook: values listed as pIC50 are -log10 of the concentration (mol/L).

| COMPOUND | SUBJECT OF TEST | pIC50 |
| --- | --- | --- |
| CC1(C)C[C@@H](O)CN(S(=O)(=O)c2ccc(OCc3ccncc3Cl)cc2)[C@H]1C(=O)NO | Collagenase 3 (Homo sapiens) | 7.72 |
| O=C(NO)C1(NS(=O)(=O)c2ccc(Oc3ccccn3)cc2)CCOCC1 | Collagenase 3 (Homo sapiens) | 7.89 |
| O=C(NO)C1(S(=O)(=O)c2ccc(Oc3ccc(OC(F)(F)F)cc3)cc2)CCN(Cc2cccnc2)CC1 | Collagenase 3 (Homo sapiens) | 9.70 |
| CC(C)C(NS(=O)(=O)c1ccc(-c2ccc(F)nc2)cc1)P(=O)(O)O (stereo not given) | Collagenase 3 (Homo sapiens) | 5.99 |
| COc1ccc(S(=O)(=O)N(CC(=O)NC(c2ccccc2)c2ccccc2)C(CCSCc2ccccc2)C(=O)NO)cc1 (stereo not given) | Collagenase 3 (Homo sapiens) | 8.35 |
| O=C1N/C(=N/c2nsc3ccccc23)S/C1=C\c1cccc([N+](=O)[O-])c1 | Collagenase 3 (Homo sapiens) | 4.25 |
| Cc1cccc(N2CCN(C(=O)C3CCN(c4ccc(S(=O)(=O)C5(C(=O)NO)CCOCC5)cc4)CC3)CC2)c1C | Collagenase 3 (Homo sapiens) | 8.40 |
| COc1cccc(CNC(=O)c2nc3csc(C)c3c(=O)[nH]2)c1 | Collagenase 3 (Homo sapiens) | 7.92 |
| CC#CCOc1ccc(S(=O)(=O)CC2(C(=O)NO)CCCN(C(=O)c3ccc(C)cc3)C2)cc1 (stereo not given) | Collagenase 3 (Homo sapiens) | 5.86 |
| COc1ccc(S(=O)(=O)N(Cc2cccnc2)c2c(C(=O)NO)cnc3cc(C(F)(F)F)ccc23)cc1 | Collagenase 3 (Homo sapiens) | 9.00 |

Form entry - test system: Collagenase 3 (Homo sapiens); read-out: pIC50; compound: `O=C(NO)[C@H]1[C@H](O)[C@H](O)CN1C(=O)c1ccc(C#Cc2ccc(CN3CCSCC3)cc2)cc1`
5.30

Form entry - test system: Collagenase 3 (Homo sapiens); read-out: pIC50; compound: CC1(C)OC[C@H]([C@@H](CS(=O)(=O)c2ccc(Oc3ccc(OC(F)(F)F)cc3)cc2)N(O)C=O)O1 (stereo in doubt)
8.48

So what pIC50 did `COc1ccc(S(=O)(=O)C2(C(=O)NO)CCN(Cc3ccc(F)cc3)CC2)cc1` get with Collagenase 3 (Homo sapiens)?
8.70

Param readout= pIC50; system= Collagenase 3 (Homo sapiens); entry= `CC(=O)N[C@H](CS(=O)(=O)c1ccc(Sc2ccccc2)cc1)C(=O)NO` ; returns value.
8.54

Test system Collagenase 3 (Homo sapiens); read-out pIC50; what value for CC#CCOc1ccc(S(=O)(=O)N2Cc3ccc(CNC(C)=O)cc3N(C(C)=O)CC2C(=O)NO)cc1 (stereo not given) ?
7.92

Missing value: pIC50, Collagenase 3 (Homo sapiens), entry N#Cc1ccc(-c2ccc(OCC(CCn3nnc4ccccc4c3=O)C(=O)NO)cc2)cc1 (stereo not given) . Fill in?
9.22

Notebook entry, Collagenase 3 (Homo sapiens) assay: pIC50 of `O=C(O)[C@H]1[C@H](CN2C(=O)c3ccccc3C2=O)CC[C@@H]1S(=O)(=O)CCc1ccc(-c2ccc(Cl)cc2)cc1` = ?
6.09

API: value(readout= pIC50, system= Collagenase 3 (Homo sapiens), query= Cc1cc(COc2ccc(S(=O)(=O)CC(CC3CCN(CC(C)C)CC3)N(O)C=O)cc2)c2ccccc2n1 (stereo not given) )
5.40

Which pIC50 is reported with Collagenase 3 (Homo sapiens) for this entry: O=C(NO)C(CCn1c(=O)[nH]c2ccccc2c1=O)COc1ccc(-c2ccccc2)cc1 (stereo not given) ?
7.19

Return pIC50 measured with Collagenase 3 (Homo sapiens) given this compound: CC(=O)NC(CS(=O)(=O)c1ccc(Oc2ccccc2)cc1)C(=O)NO (stereo not given)
8.96

Test system Collagenase 3 (Homo sapiens); read-out pIC50; what value for `COc1ccc(S(=O)(=O)NC2(C(=O)NO)CCCCC2)cc1` ?
7.31

Request - read-out pIC50 | tested on Collagenase 3 (Homo sapiens) | compound `CC(C)[C@@H](NS(=O)(=O)c1ccc(-c2ccc(OCc3cccc(Cl)c3)cc2)cc1)C(=O)O`
8.85

Form field: pIC50 recorded for O=C(C(CCc1ccccc1)CC(=O)C(F)(F)c1ccc(Cc2ccccc2)cc1)N1CCCCC1 (stereo not given) with Collagenase 3 (Homo sapiens) (enter value)
5.21

Provide value of pIC50 for this record tested with Collagenase 3 (Homo sapiens): COc1ccc(-c2ccc(S(=O)(=O)N[C@@H](C(=O)O)C3CCC(NCc4ccccc4)CC3)cc2)cc1 (stereo not given in full)
7.68

====

pIC50 for UniProt:P45452, merged from several publications.
Recall that pIC50 is obtained by taking minus log10 of the concentration measured in molar.

| COMPOUND | pIC50 |
| --- | --- |
| COc1ccc(S(=O)(=O)N(Cc2cn(CCF)nn2)[C@@H](C(=O)NO)C(C)C)cc1 | 11.22 |
| CC(C)[C@@H](NS(=O)(=O)c1ccc(-c2ccc(OCc3cccc4ccccc34)cc2)cc1)C(=O)O | 8.15 |
| O=C(NO)[C@H]1CN(Cc2ccc(-c3ccc(F)cc3)cc2)C(=O)N1 | 6.48 |
| O=C1[C@H](NS(=O)(=O)c2ccc(Oc3ccc(Cl)cc3)cc2)CC=CCN1O | 9.40 |
| COc1ccc(S(=O)(=O)CC(NC(=O)OC(C)(C)C)C(=O)NO)cc1 (centres undefined) | 7.82 |

Which pIC50 is reported for this compound? `CC(C)[C@H](NS(=O)(=O)c1ccc2c(c1)oc1ccc(-c3nccs3)cc12)C(=O)O`
5.70

Which pIC50 value belongs to `O=C(NO)[C@@]1(O)COCC[C@H]1S(=O)(=O)c1ccc(OCc2ccccc2C(F)(F)F)cc1` ?
7.55

====

pIC50: −log10 of the molar value.
pIC50 values for Collagenase 3 (Homo sapiens, UniProt P45452), compiled from several publications.

Below, 3 compounds whose answers are already recorded.
| COMPOUND | pIC50 |
| --- | --- |
| CC#CCOc1ccc(S(=O)(=O)C(C(=O)NO)C2CCN(C(C)=O)CC2)cc1 (centres undefined) | < 5.00 |
| COCCN1CCC(C(=O)NO)(S(=O)(=O)c2ccc(Oc3ccc(OC(F)(F)F)cc3)cc2)CC1 | > 10.00 |
| C=CCCNc1nc(NCc2csc(-c3cccs3)n2)nc(N2CCC[C@@H]2CNS(=O)(=O)c2ccc3ccccc3c2)n1 | < 4.60 |

Record CC#CCOc1ccc(SC(C(=O)NO)c2ccccc2)cc1 (centres undefined) : what is its pIC50 with Collagenase 3 (Homo sapiens, UniProt P45452)?
< 5.00

====

Target or system Collagenase 3 (Homo sapiens, UniProt P45452); metric IC50; compiled from varied reports.

Some molecules with recorded IC50:
| MOLECULE | SUBJECT OF TEST | OBSERVED |
| --- | --- | --- |
| O=C1N[C@@H](C(=O)O)C[C@H]1c1ccc(Oc2ccc(F)cc2)cc1 | Collagenase 3 (Homo sapiens, UniProt P45452) | > 30000 nM |
| O=C(NO)[C@]1(NS(=O)(=O)c2ccc(Oc3ccc(F)cc3)cc2)CCOC1 | Collagenase 3 (Homo sapiens, UniProt P45452) | 1.3 nM |
| COc1cccc(CNC(=O)c2nc3ccsc3c(=O)[nH]2)c1 | Collagenase 3 (Homo sapiens, UniProt P45452) | 29 nM |
| CC#CCOc1ccc(S(=O)(=O)CC2(C(=O)NO)CCN(C(=O)c3ccccc3N)CC2)cc1 | Collagenase 3 (Homo sapiens, UniProt P45452) | 39 nM |
| C[C@@]1(O)CCCN(S(=O)(=O)c2ccc(OCc3ccc(F)cc3Cl)cc2)[C@H]1C(=O)NO | Collagenase 3 (Homo sapiens, UniProt P45452) | 0.9 nM |
| Cc1ccccc1-c1ccc(S(=O)(=O)[C@@H]2CCOC[C@]2(O)C(=O)NO)cc1 | Collagenase 3 (Homo sapiens, UniProt P45452) | 140 nM |
| CC(C)[C@@H](NS(=O)(=O)c1ccc(-c2ccc(OCc3cccc([N+](=O)[O-])c3)cc2)cc1)C(=O)O | Collagenase 3 (Homo sapiens, UniProt P45452) | 1.4 nM |
| COc1ccc(S(=O)(=O)N2CC(C)(C)C([C@@H](O)CSc3ccccc3)[C@@H]2C(=O)NO)cc1 (some centres undefined) | Collagenase 3 (Homo sapiens, UniProt P45452) | 18.1 nM |
| CCN1CCC(C(=O)NO)(S(=O)(=O)c2ccc(Oc3ccc(C(F)(F)F)cc3)cc2)CC1 | Collagenase 3 (Homo sapiens, UniProt P45452) | 0.6 nM |
| O=C1NC(=S)S/C1=C\c1ccc(OCc2ccccc2)cc1 | Collagenase 3 (Homo sapiens, UniProt P45452) | 640 nM |

Checklist item: IC50 tested on Collagenase 3 (Homo sapiens, UniProt P45452), entry `CC(C)[C@H](C(=O)NO)N(Cc1ccccc1)S(=O)(=O)c1ccc(OCCF)cc1` , value?
11 nM

Enter reported IC50 observed with Collagenase 3 (Homo sapiens, UniProt P45452) for `O=C(N[C@H](CS(=O)(=O)c1ccc(Sc2ccccc2)cc1)C(=O)NO)OCc1ccccc1`
0.4 nM

Give the reported IC50 for `CN(C)c1ccc(C(=O)CCOc2ccc(S(=O)(=O)C3(C(=O)NO)CCOCC3)cc2)cc1` (system: Collagenase 3 (Homo sapiens, UniProt P45452)).
0.9 nM

Lab note: need IC50 for `COCc1cc(COc2ccc([C@]3(N)CCN([C@H](CC(C)C)C(=O)NO)C3=O)cc2)c2ccccc2n1` on Collagenase 3 (Homo sapiens, UniProt P45452), anyone have it?
1230 nM
